Target: Cbl-b protein and UbcH5B-Ub (Homo sapiens (Human), UniProt Q13191)
Sequence (Q13191 whole entry, species assumed): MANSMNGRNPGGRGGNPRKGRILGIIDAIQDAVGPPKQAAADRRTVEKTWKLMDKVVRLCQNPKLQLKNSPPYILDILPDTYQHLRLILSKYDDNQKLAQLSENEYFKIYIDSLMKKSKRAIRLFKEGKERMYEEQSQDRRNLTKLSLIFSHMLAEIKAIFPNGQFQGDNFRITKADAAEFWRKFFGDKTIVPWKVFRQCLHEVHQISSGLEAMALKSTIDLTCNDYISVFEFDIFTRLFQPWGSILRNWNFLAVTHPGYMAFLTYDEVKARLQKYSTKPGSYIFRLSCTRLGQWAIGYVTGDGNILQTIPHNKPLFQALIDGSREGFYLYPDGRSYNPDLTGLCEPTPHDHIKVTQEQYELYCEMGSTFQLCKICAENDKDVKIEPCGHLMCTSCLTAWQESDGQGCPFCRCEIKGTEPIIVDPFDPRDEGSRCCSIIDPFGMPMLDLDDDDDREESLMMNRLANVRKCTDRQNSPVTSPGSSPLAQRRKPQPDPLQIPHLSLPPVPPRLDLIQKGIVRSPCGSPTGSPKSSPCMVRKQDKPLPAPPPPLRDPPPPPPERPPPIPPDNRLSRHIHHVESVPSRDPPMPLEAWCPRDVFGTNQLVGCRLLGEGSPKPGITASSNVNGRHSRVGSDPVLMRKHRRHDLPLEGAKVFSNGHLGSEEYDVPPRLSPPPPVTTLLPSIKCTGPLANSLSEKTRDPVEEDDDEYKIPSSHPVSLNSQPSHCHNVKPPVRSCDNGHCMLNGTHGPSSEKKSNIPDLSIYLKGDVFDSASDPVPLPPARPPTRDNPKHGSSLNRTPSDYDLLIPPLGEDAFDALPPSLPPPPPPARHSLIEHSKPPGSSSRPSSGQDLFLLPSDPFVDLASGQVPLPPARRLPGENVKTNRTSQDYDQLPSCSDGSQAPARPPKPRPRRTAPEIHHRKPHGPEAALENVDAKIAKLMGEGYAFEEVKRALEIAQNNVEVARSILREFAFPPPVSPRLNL
Test: Cbl-b activity assay (HTRF, interaction between Cbl-b protein and UbcH5B-Ub)
Conditions: inhibition of interaction between Biotin-Cbl-b protein and Eu-Ubquitin-UbcH5B, HTRF signal 665 nm/615 nm
quantity: IC50 (µM)
Numeric answer only, unit µM assumed.

Example entries and their recorded answers appear below.
- COc1cc(CN2CCC[C@H](C)C2)cn2c(=O)c(-c3cccc(C4(c5nncn5C)CC(C)C4)c3)cnc12 (stereo partly drawn) [Compound 3]: 0.296
- Cc1cc(C(C)NC2(C)CCC2)cc2c(=O)c(-c3cccc([C@]4(c5nncn5C)C[C@@H](C)C4)c3)coc12 (stereo partly drawn) [Compound 123]: 0.0054

Enquiry: Reported IC50 for Cc1c(F)c(CN2CCC[C@H](C)C2)cc2c(=O)c(-c3cccc(C4(c5nncn5C)CC(C)C4)c3)coc12 (stereo in doubt) [Compound 121] : what is it?
Return: 0.0101
